CC50 overview
Assay: NOVARTIS: Cytotoxicity against human hepatocellular carcinoma cell line (Huh7)
Type: toxicity, cell-based, Huh-7
Details: Huh7 cells (hepatocellular carcinoma cell line)

Recorded CC50, per entry:
Oc1ccc(-c2ccc(F)cc2)cc1CN1CCCCCC1
> 100 µM
C[n+]1ccc(C2OC2c2ccccc2)c2ccccc21 (stereo unspecified)
> 10 µM
Cc1ccc(-c2nc3ncccc3o2)cc1NC(=O)COc1ccc(C(C)(C)C)cc1
> 100 µM

Qu. Please report the measured CC50 for `Cc1ccc(OCCCCCCNCCO)c(C)c1`
Ans. 20.4 µM

Qu. Output CC50 of `O=c1c2c([nH]c3ccccc13)CCCCCC2`
Ans. > 100 µM

Qu. Look up and report measured CC50 for this entry: COc1ccccc1C1SCCN1C(=O)Nc1ccc(Cl)c(Cl)c1 (stereo unspecified)
Ans. > 10 µM

* * *

Test: NOVARTIS: Cytotoxicity against human hepatocellular carcinoma cell line (Huh7)
Format: toxicity, cell-based, Huh-7
Conditions: Huh7 cells (hepatocellular carcinoma cell line)
value.type: CC50

O=C(NC(=CC=Cc1ccccc1)C(=O)N1CCOCC1)c1ccccc1
> 100 µM
O=C(NCCCCNc1ccnc2cc(Cl)ccc12)c1cccc(Br)c1
> 10 µM
Cc1cccc(CN2CCC(CNC(=S)Nc3ccc4nc(N5CCN(C)CC5)cc(C)c4c3)CC2)c1
> 100 µM
O=C(NCCCCCCNC(=O)Nc1nc(-c2ccc(F)cc2)cs1)Nc1nc(-c2ccc(F)cc2)cs1
51.6 µM
O=C(Cc1ccccc1)NCCCCNc1ccnc2cc(Cl)ccc12
> 9.6 µM

// moving on: another record for CC50
Qu. Look up and state reported CC50 for `O=C(Nc1ccc(-c2nc3cc(NC(=O)c4ccc(Br)o4)ccc3[nH]2)cc1)c1ccc(Br)o1`
Ans. 2.25 µM

* * *

System: Plasmodium falciparum
Assay: NOVARTIS: Inhibition of Plasmodium falciparum 3D7 (drug-susceptible) proliferation in erythrocyte-based infection assay
Format: functional, organism-based
Details: Plasmodium falciparum, 3D7
In this section, each of the molecules is paired with its reported EC50.

C=C(Cl)CSc1nnc(CCNC(=O)c2ccc(C)cc2)n1-c1ccc(F)cc1
> 12.5 µM

Qu. Complete the entry with EC50 for `Cc1cccc(NC(=O)c2ccc3ccccc3n2)n1`
Ans. > 0.547 µM

Qu. Give reported EC50 value for `COc1ccc(-c2csc3nc(COc4cccc(C)c4)nn23)c(O)c1`
Ans. > 4.62 µM

Qu. Tell me its EC50 given CC=C[C@H]1O[C@@](O)([C@@H](C)C(O)C(C)[C@H]2OC(=O)C(OC)=CC(C)=C[C@@H](C)[C@@H](O)[C@@H](C)[C@@H](O)C(C)CC(C)=CC=C[C@@H]2OC)C[C@@H](O[C@H]2C[C@@H](O)[C@H](OC(N)=O)[C@@H](C)O2)[C@@H]1C (some centres undefined) as the entry.
Ans. > 1.67 µM

* * *

Here, each record is paired with measured CC50 data.
Test: NOVARTIS: Cytotoxicity against human hepatocellular carcinoma cell line (Huh7)
Format: toxicity, cell-based, Huh-7
Details: Huh7 cells (hepatocellular carcinoma cell line)

O=C(CSc1ccc2nnc(-c3cccc(F)c3)n2n1)Nc1ccc2c(c1)OCO2
> 100 µM
O=C(O)C1Cc2c([nH]c3ccccc23)C(c2ccc(Cl)cc2Cl)N1 (stereo not given)
> 100 µM
O=C(Nc1ccc(Cl)cc1)N1CCN(c2ccc3nncn3n2)CC1
> 100 µM
CCOC(=O)C1=C(C)NC2=C(C(=O)CCC2)C1c1ccc([N+](=O)[O-])cc1 (stereo not given)
> 100 µM
N#Cc1c(-c2ccccc2)cc(N2CCN(Cc3ccc(Cl)cc3)CC2)n2c1nc1ccccc12
> 100 µM

Qu. Please look at this compound and report its CC50: C[n+]1c2ccccc2nc2ccc(NC3CCCCC3N)cc21.[O-][Cl+3]([O-])([O-])[O-] (stereo not given)
Ans. 4.21 µM

Qu. Supply CC50 value. Item: `COc1ccc(Br)cc1CNC(=O)CCCN1C(=O)COc2ccc(C)cc21`
Ans. > 100 µM

Qu. Let me know recorded CC50 for `CCN(CC)[P+](N(C)C[Si](C)(C)C)(N(CC)CC)N(CC)CC` , thanks.
Ans. 8.41 µM

Qu. Report measured CC50; entry is `COc1ccc(NC(=O)CCn2c(=S)oc3ccccc32)c([N+](=O)[O-])c1`
Ans. > 10 µM

Qu. Give the value of CC50 reported for the following: `CSc1nnc(CCNC(=O)c2c(-c3ccccc3)noc2C)n1-c1ccc(F)cc1`
Ans. > 100 µM
